Target: 5-HT2C receptor (Mus musculus)
Assay: Binding affinity towards 5-HT 2C receptor of mouse

compound: COc1ccc(CC2NCCc3c2[nH]c2c(C)c(C)ccc32)cc1OC (centres undefined)
Ki / nM: 7.76
--
compound: COc1ccc(CC2NCCc3c2[nH]c2c(Br)c(C)ccc32)cc1OC (centres undefined)
Ki / nM: 2.04
--
compound: COc1ccc(CC2NCCc3c2[nH]c2ccc(C)cc32)c(Br)c1OC (centres undefined)
Ki / nM: 18.6
--
compound: COc1ccc(CC2NCCc3c2[nH]c2ccccc32)cc1OC (centres undefined)
Ki / nM: 126

----------
Items are presented alongside their recorded Ratio.
Molecular target: Serotonin receptor 2a and 2b (5HT2A and 5HT2B) (Rattus norvegicus) (UniProt P30994+P14842)
Sequence (P14842 whole entry, looked up): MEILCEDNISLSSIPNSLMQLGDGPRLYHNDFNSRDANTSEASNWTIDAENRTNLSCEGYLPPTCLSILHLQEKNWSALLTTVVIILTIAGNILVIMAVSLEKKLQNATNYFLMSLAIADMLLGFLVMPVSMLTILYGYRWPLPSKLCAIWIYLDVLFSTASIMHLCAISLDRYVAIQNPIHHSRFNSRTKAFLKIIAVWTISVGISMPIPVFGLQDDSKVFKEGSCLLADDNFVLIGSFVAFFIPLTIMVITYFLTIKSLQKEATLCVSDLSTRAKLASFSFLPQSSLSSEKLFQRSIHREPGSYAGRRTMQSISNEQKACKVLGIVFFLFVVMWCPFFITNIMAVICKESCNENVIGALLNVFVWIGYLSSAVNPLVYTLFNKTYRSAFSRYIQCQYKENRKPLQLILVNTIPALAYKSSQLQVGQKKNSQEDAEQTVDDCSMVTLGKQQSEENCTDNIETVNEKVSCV
Sequence (P30994 whole entry, looked up): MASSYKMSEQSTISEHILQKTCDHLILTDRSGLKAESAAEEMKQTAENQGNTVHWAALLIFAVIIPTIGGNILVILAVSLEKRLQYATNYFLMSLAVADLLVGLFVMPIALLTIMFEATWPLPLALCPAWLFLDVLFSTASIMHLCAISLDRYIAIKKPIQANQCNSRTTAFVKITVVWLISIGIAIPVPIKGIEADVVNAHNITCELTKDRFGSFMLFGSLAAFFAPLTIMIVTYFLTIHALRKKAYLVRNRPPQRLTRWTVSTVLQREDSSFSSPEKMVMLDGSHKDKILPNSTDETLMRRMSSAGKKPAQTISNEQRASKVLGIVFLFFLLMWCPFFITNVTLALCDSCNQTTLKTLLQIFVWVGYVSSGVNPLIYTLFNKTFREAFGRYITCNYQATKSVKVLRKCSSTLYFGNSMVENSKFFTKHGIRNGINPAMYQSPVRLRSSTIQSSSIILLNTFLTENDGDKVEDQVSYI
Assay: Relative binding to serotonin receptors 5-HT-2B and 5-HT-2A (Ratio of […] Ki)
Assay type: protein assay

compound: COc1ccc(CC2NCCc3c2[nH]c2c(Br)c(C)ccc32)cc1OC (stereo not given)
Ratio: 3.09

compound: COc1ccc(CC2NCCc3c2[nH]c2c(C)c(C)ccc32)cc1OC (stereo not given)
Ratio: 115

compound: Cn1ccc2cc(NC(=O)Nc3cccnc3)ccc21
Ratio: > 158

compound: COc1ccc(CC2NCCc3c2[nH]c2ccc(C)cc32)c(Br)c1OC (stereo not given)
Ratio: 83.2

compound: COc1ccc(CC2NCCc3c2[nH]c2ccccc32)cc1OC (stereo not given)
Ratio: 97.7
